Reported 100 nM hIL-36R-mFc Bound (RU) values are given for each entry in this list.
# assayedSystem: T1, human IL-36R extracellular domain expressed with a C-terminal mouse IgG2a Fc tag (hIL-36R-mFc) (human; mouse, UniProt Q9HB29 20-337)
# T1 construct: not shown: mouse IgG2a Fc, E98-K330
# T1 sequence (looked up): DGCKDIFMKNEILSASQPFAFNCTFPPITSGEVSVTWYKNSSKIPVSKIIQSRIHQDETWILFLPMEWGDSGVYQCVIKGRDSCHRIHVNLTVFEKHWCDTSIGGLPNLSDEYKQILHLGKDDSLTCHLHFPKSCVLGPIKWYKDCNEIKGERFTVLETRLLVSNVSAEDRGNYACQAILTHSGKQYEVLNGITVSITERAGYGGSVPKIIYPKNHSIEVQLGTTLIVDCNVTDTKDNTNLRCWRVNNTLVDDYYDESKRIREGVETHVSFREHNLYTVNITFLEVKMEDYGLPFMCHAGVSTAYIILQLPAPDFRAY
# assayRemarks: SPR Biacore 4000, mAb captured on anti-hFc, 25C
// units = RU; emit number, no label

Examples from the recorded data:
# binder, unitTag, 100 nM hIL-36R-mFc Bound (RU)
rows = [
    ("H4H14728P (antibody, human IgG4 S228P, kappa, V domains shown, Fully human anti-IL-36R antibody) VH: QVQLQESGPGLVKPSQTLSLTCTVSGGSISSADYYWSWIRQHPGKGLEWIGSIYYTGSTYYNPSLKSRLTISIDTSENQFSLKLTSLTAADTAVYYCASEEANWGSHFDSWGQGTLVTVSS VL: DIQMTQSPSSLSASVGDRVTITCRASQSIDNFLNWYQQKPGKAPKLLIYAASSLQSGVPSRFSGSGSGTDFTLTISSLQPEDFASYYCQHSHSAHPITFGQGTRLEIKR", "RU", 7),
    ("H4H14708P2 (antibody, human IgG4 S228P, kappa, V domains shown, Fully human anti-IL-36R antibody) VH: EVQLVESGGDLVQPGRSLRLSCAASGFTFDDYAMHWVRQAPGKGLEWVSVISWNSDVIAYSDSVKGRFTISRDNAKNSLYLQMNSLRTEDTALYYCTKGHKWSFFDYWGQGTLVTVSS VL: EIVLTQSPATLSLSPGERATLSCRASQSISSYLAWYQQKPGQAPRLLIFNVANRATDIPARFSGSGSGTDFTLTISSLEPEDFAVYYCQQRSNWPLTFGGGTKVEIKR", "RU", 146),
    ("H4H14758P (antibody, human IgG4 S228P, kappa, V domains shown, Fully human anti-IL-36R antibody) VH: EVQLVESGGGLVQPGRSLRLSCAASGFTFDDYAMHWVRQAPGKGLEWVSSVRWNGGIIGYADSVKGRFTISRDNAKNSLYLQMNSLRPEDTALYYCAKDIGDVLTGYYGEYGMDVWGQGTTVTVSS VL: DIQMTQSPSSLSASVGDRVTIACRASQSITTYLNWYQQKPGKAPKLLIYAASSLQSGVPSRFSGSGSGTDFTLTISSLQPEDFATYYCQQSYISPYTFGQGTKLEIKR", "RU", 161),
]

In the following, a different binder is considered.
Item H4H14709P (antibody, human IgG4 S228P, kappa, V domains shown, Fully human anti-IL-36R antibody) VH: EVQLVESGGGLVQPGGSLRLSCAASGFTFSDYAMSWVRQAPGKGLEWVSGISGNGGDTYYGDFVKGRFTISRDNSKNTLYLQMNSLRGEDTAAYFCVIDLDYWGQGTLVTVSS VL: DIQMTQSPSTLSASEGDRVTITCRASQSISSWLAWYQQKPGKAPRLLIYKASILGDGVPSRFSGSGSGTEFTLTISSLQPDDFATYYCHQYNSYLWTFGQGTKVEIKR : provide 100 nM hIL-36R-mFc Bound (RU)
142
